- protocol-summary: Human HepG2 cell viability assay in 384 well format
- Assay type: toxicity, cell-based
- Set-up: dose 125 nL, time 70.5 hour; concentration not given beside the values
- run-parameters: HepG2 cells, read-out: Inhibition
Please go through the items and note down their cytotoxicity at 70.5 h.
Numbers only, in %.

O=C(NC1CC1)C1(Cc2cc(-c3ccc(F)cc3F)no2)CCOCC1; 0.221
CN1C(=O)C2(CC(=O)Nc3[nH]ncc32)c2ccc(F)cc21 (stereo not drawn); -15.5
Cn1ccnc1CN1CCC2(CC1)CCN(c1cncnc1)C2=O; -3.96

# map each compound to its cytotoxicity at 70.5 h
1. Cc1c(OCC(=O)NCc2ccccc2Cl)c(=O)ccn1C
2. Cc1cc(C2CCC2)nc(NCCC23CCCN2CCC3)n1

**Result**
1: -23.2; 2: -8.73

---

Would you kindly list cytotoxicity at 70.5 h for each of these molecules?
- protocol-summary: Human HepG2 cell viability assay in 384 well format
- Format: toxicity, cell-based
- Set-up: dose 125 nL, time 70.5 hour; concentration not given beside the values
- run-parameters: HepG2 cells, read-out: Inhibition
Numbers only, in %.

O=C1CSC(c2ccc(F)c(Cl)c2)c2c(n(C3CCOCC3)[nH]c2=O)N1 (stereo not drawn); 10.3
O=C(NC1CC1)c1ccccc1NCc1cn2cccnc2n1; -5.34
O=C(c1ccc2c(c1)CCO2)N1CCN(c2ncccn2)CC1; 2.69
CC1CCCCN1CCNC(=O)c1ccn(-c2ccccc2)n1 (stereo not drawn); 13.6
Cc1cccnc1CNC[C@H]1Cn2cc(-c3ccccc3)nc2CO1; -6.83

For each of the molecules below, note its cytotoxicity at 70.5 h.
1. CN(C)C(=O)CCCS(=O)(=O)Cc1cc(Cl)c2c(c1)OCCO2
2. FC(F)(F)C1CN(Cc2cnc3c(-c4ccccc4)cnn3c2)CCO1 (stereo not drawn)
3. Cc1cccc(CN2CC3(CCN(C4CCOC4)CC3)OCC2=O)n1 (stereo not drawn)
4. CC(c1nnc(-c2ccccc2)o1)N1CCc2cncnc2C1 (stereo not drawn)
5. CC(C)c1nc(C(=O)N2C[C@H](C(C)C)[C@@H](N)C2)cs1

**Result**
1. -4.96
2. -7.58
3. 0.761
4. -4.24
5. -0.955

Batch request: cytotoxicity at 70.5 h per item, same order as input.
1. COc1cc(F)ccc1-c1nc2c([nH]1)c(C1CC1)nn2C
2. CS(=O)(=O)N1CC[C@@H](CC(=O)O)[C@@H](CC2=NCCc3cc(F)ccc32)C1
3. CCn1ccnc1CN1CCN(C(C)C(=O)N2CCC(C)CC2)CC1 (stereo not drawn)

**Result**
1: -10.9; 2: -6.32; 3: 3.72

# batch size: 4; output cytotoxicity at 70.5 h per entry
1. CN1CCOC(CNCc2cccc(OCC(F)(F)F)c2)C1 (stereo not drawn)
2. COc1cc(CNCc2c(C)nn(C)c2N(C)C)ccc1C
3. Cn1cc(-c2ncc3c(c2C(=O)O)CCN(CC2CCOC2)C3)cn1 (stereo not drawn)
4. Cc1ccc(-c2nc(CN(C)C3CCS(=O)(=O)C3)cs2)o1 (stereo not drawn)

**Result**
1. -1.74
2. -3.16
3. -3.12
4. -8.59

---

Please go through the items and note down their cytotoxicity at 70.5 h.
- protocol-summary: Human HepG2 cell viability assay in 384 well format
- Type: toxicity, cell-based
- Set-up: dose 125 nL, time 70.5 hour; concentration not given beside the values
- run-parameters: HepG2 cells, read-out: Inhibition
Numbers only, in %.

Solved cases (5 shown):
Cc1c(Br)cccc1S(=O)(=O)NCc1ccnn1C; -3.27
O=C1C(NCc2nnc3n2CCCC3)CCCN1c1ccccc1 (centres undefined); -7.11
O=S(=O)(C1CC1)N1CCO[C@H]2[C@H](Oc3cccnc3)CC[C@@H]21; -4.91
CC(=O)c1cc(CC(=O)NCc2cccc(F)c2F)cs1; -8.12
COc1ccccc1Oc1cncc(C2CCCN(C)C2)n1 (centres undefined); -5.97

Hi team, please reply with cytotoxicity at 70.5 h for each item in this list.
1. CCC(C)CS(=O)(=O)NC(=O)C1CC1 (centres undefined)
2. O=C(NCCn1ccc(-c2ccncc2)n1)c1ccc2c(c1)OCO2
3. CCc1cnc(N2CCC3(CCN(Cc4cccc(C)c4)C3=O)C2)nc1 (centres undefined)

**Result**
-5.06
1.76
1.75
